Origin of measurements: ChEMBL document CHEMBL1126803

molecular target: Serotonin 2 (5-HT2) receptor (Rattus norvegicus, UniProt P30994+P08909+P14842); assay: Displacement of [3H]ketanserin from 5-hydroxytryptamine 2 receptor in rat cortical membranes; format: cell membranes, Membrane
Observed property: IC50 (nM)

Compound | Test target | Result units | Observed value
O=C(O)/C=C\C(=O)O.O=C(O)/C=C\C(=O)O.O=C1NCCN1CCCN1CCN(C2CC(c3ccc(F)cc3)c3cc(Cl)ccc32)CC1 (centres undefined) | Serotonin 2 (5-HT2) receptor (Rattus norvegicus, UniProt P30994+P08909+P14842) | nM | 10

[1] Fc1ccc(C2CC(N3CCN(CCN4CCCN=C4S)CC3)c3ccc(F)cc32)cc1.O=C(O)/C=C\C(=O)O.O=C(O)/C=C\C(=O)O (centres undefined)
[2] CC(C)N1CCN(CCN2CCN(C3CC(c4ccccc4)c4cc(Cl)ccc43)CC2)C1=O.O=C(O)/C=C\C(=O)O.O=C(O)/C=C\C(=O)O (centres undefined)
[3] CSc1ccc2c(c1)C(c1ccc(F)cc1)CC2N1CCN(CCN2CCN(C(C)C)C2=O)CC1 (centres undefined)
Ask: Reorder: IC50, max to min. List the labels in the requested order.
Result: 2, 3, 1

---

target: D(2) dopamine receptor (Rattus norvegicus); test: Displacement of [3H]spiperone from dopamine D2 receptors in rat striatal membranes; assay type: cell membranes, Membrane
Sequence (P61169 whole entry): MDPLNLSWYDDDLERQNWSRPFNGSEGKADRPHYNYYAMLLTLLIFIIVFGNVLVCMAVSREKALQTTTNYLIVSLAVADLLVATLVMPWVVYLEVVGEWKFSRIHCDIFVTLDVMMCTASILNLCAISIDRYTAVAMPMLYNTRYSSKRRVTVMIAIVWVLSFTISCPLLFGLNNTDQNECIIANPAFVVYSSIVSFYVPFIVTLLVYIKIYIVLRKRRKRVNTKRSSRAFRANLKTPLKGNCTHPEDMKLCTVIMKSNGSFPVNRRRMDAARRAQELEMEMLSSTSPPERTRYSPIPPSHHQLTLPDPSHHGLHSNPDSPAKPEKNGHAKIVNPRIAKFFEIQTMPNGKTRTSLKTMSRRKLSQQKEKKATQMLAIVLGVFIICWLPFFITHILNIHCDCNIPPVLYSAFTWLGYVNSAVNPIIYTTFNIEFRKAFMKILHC
Observed property: IC50 (nM)

// worked examples, IC50 included
Compound | Result units | IC50
Fc1ccc(C2CC(N3CCN(CCN4CCCN=C4S)CC3)c3ccc(F)cc32)cc1.O=C(O)/C=C\C(=O)O.O=C(O)/C=C\C(=O)O (centres undefined) | nM | 220
O=C(O)/C=C\C(=O)O.O=C(O)/C=C\C(=O)O.O=c1[nH]c2ccccc2c(=O)n1CCN1CCN(C2CC(c3ccc(F)cc3)c3cc(Cl)ccc32)CC1 (centres undefined) | nM | 93
Cl.Cl.O=C1OCCN1CCN1CCN(C2CC(c3ccc(F)cc3)c3cc(Cl)ccc32)CC1 (centres undefined) | nM | 550
CC(C)N1CCN(CCN2CCN(C3CC(c4ccc(F)cc4)c4cc(Cl)ccc43)CC2)C1=O.O=C(O)/C=C\C(=O)O.O=C(O)/C=C\C(=O)O (stereo in doubt; (+)-20) | nM | 1300

[A] Cc1ccc2c(c1)C(c1ccc(F)cc1)CC2N1CCN(CCN2CCN(C(C)C)C2=O)CC1.O=C(O)/C=C\C(=O)O.O=C(O)/C=C\C(=O)O (centres undefined)
[B] Cc1nc2sccn2c(=O)c1CCN1CCN(C2CC(c3ccc(F)cc3)c3cc(Cl)ccc32)CC1.O=C(O)/C=C\C(=O)O.O=C(O)/C=C\C(=O)O (centres undefined)
[C] OCCN1CCN(C2CC(c3ccc(F)cc3)c3cc(F)ccc32)CC1 (centres undefined)
[D] Fc1ccc(C2CC(N3CCN(CCN4CCN=C4S)CC3)c3ccc(F)cc32)cc1.O=C(O)/C=C\C(=O)O.O=C(O)/C=C\C(=O)O (centres undefined)
[E] O=C(O)/C=C\C(=O)O.O=C(O)/C=C\C(=O)O.O=C1NCCCN1CCN1CCN(C2CC(c3ccc(F)cc3)c3cc(Cl)ccc32)CC1 (stereo in doubt; (+)-41)
Ask: Reorder: IC50, max to min. List the labels in the requested order.
Result: E, C, A, D, B
